System: Enterococcus faecalis
Test Readout: MIC (µg/mL)
Quick note: give the figure in µg/mL, leave out the unit.

Reported MIC for Cn1cc(NC(=O)c2cc(NC(=O)c3cc(NC(=O)c4sccc4Cl)c[nH]3)cn2C)cc1C(=O)NCCN1CCOCC1 : what is it?
2

Would you kindly repeat that for CC(C)n1cc(NC(=O)c2cc(NC(=O)c3sccc3Cl)cn2C)cc1C(=O)Nc1cc(C(=O)NCCN2CCOCC2)n(C)c1 ?
1
